# EXPERIMENTAL_DETAILS: Cycloheximide Counterscreen for Small Molecule Inhibitors of Shiga Toxin; further: read at 38.3 µM for the half of the compounds with a filed dose; 0% is about no effect
# APPLIED_CONDITIONS: cell reporter, cycloheximide protein synthesis inhibition counterscreen; active compounds read high
The campaign covered roughly 300,000 compounds. About 37,000 (12%) were called active. The sample as a whole holds a higher share of actives than the screen did.
ENDPOINT: max response (%)
The reply should be a number in %, with the unit left off.

Solved entries:
[[record]]
molecule = "CC(=O)Nc1ccc(NC(=O)C2CCCN2S(=O)(=O)c2cccc(C(F)(F)F)c2)cc1 (stereo not drawn)"
endpoint = "max response"
assay_result = 0.889

[[record]]
molecule = "CC(C)OC(=O)c1c(NC(=O)c2ccco2)sc2c1CCCC2"
endpoint = "max response"
assay_result = -0.728

[[record]]
molecule = "COC(=O)c1cc(N2CCNCC2)nc2ccccc12"
endpoint = "max response"
assay_result = -0.723

[[record]]
molecule = "Cc1ccc(CNC(=O)Cc2cn(C)c3ccccc23)cc1"
endpoint = "max response"
assay_result = 11.6

[[record]]
molecule = "COc1ccc(CCNC(=O)C2CCCN(S(=O)(=O)c3ccc(OC)cc3)C2)cc1 (stereo not drawn)"
endpoint = "max response"
assay_result = -5.86


Lab book: max response of Cc1ccc(NC2CCCN(C(=O)CCc3cn[nH]c3)C2)cc1C (stereo not drawn) noted as 2.58

Lab book: max response of O=C(/C=C/c1ccc(Cl)cc1)Nc1ccc(Br)cn1 noted as 14.3
